meta.source: patent US11358987B2

Tested on: B. subtilis DSM10
Test: Microdilution assay, MIC determination (CLSI M07-A9)
Type: cell-based
Conditions: Bacillus subtilis; B. subtilis DSM10; 37° C., 20 h, MHBII media; read-out: MIC
Could you please report measured MIC for the items listed next?
Answers are plain numbers, in µg/mL.

Example entries and their recorded answers appear below.
COc1c(NC(=O)c2ccc(NC(=O)c3ccc(NC(=O)C(Cc4cnn[nH]4)NC(=O)c4ccc(NC(=O)c5ccc(F)cc5)cn4)cc3O)c(OC)c2O)ccc(C(=O)O)c1O (stereo not shown) : 1000
COc1nc(C(=O)O)ccc1NC(=O)c1ccc(NC(=O)c2ccc(NC(=O)C(Cc3cnn[nH]3)NC(=O)c3ccc(NC(=O)/C(C)=C/c4ccc(O)cc4)cc3)cc2)c(OC)c1O (stereo not shown) : 2000
COc1c(NC(=O)c2ccc(NC(=O)c3ccc(NC(=O)C(Cc4cnn[nH]4)NC(=O)c4ccc(NC(=O)/C(C)=C/c5ccc(O)cc5)cn4)cc3O)c(OC)c2O)ccc(C(=O)O)c1O (stereo not shown) : 1000
COc1c(NC(=O)c2ccc(NC(=O)c3ccc(NC(=O)C(Cc4cnn[nH]4)NC(=O)c4ccc(NC(=O)/C(C)=C/c5ccc(O)cc5)cn4)cn3)c(OC)c2O)ccc(C(=O)O)c1O (stereo not shown) : 125
COc1c(NC(=O)c2ccc(NC(=O)[C@H](Cc3c[nH]nn3)NC(=O)c3ccc(NC(=O)/C(C)=C/c4ccc(O)cc4)cc3)cc2)ccc(C(=O)Nc2ccc(C(=O)O)cn2)c1O : 4000
COc1c(NC(=O)c2ccc(NC(=O)c3ccc(NC(=O)C(Cc4cnn[nH]4)NC(=O)c4ccc(NC(=O)/C(C)=C/c5ccc(O)cc5)cc4)cn3)c(OC)c2O)ccc(C(=O)O)c1O (stereo not shown) : 63

Could you now consider this next compound?
# MIC lookup, item COc1nc(C(=O)Nc2ccc(C(=O)O)c(O)c2OC)ccc1NC(=O)c1ccc(NC(=O)C(Cc2cnn[nH]2)NC(=O)c2ccc(NC(=O)/C(C)=C/c3ccc(O)cc3)cc2)cc1 (stereo not shown)
250

----------
System: B. subtilis DSM10
Assay: Microdilution assay, MIC determination (CLSI M07-A9)
Assay type: cell-based
Conditions: Bacillus subtilis; B. subtilis DSM10; 37° C., 20 h, MHBII media; read-out: MIC
experimentalEndpoint: MIC

Example entries and their recorded answers appear below.
COc1c(NC(=O)c2ccc(NC(=O)[C@H](Cc3c[nH]nn3)NC(=O)c3ccc(NC(=O)/C(C)=C/c4ccc(O)cc4)cc3)cc2)ccc(C(=O)Nc2ccc(C(=O)O)nc2)c1O : ≥ 8000 µg/mL
C/C(=C\c1ccc(O)cc1)C(=O)Nc1ccc(C(=O)N[C@@H](Cc2c[nH]nn2)C(=O)Nc2ccc(C(=O)Nc3ccc(C(=O)Nc4ccc(C(=O)O)cc4)c(O)c3OC(C)C)nc2)nc1 : ≤ 16 µg/mL

# MIC lookup, item C/C(=C\c1ccc(O)cc1)C(=O)Nc1ccc(C(=O)N[C@@H](Cc2c[nH]nn2)C(=O)Nc2ccc(C(=O)Nc3ccc(C(=O)Nc4ccc(C(=O)O)cc4)c(O)c3OC(C)C)nc2)cc1
≤ 16 µg/mL
